# System: TNFα
# assay remarks: TNFα inhibition, LPS-induced PBMCs or CD14+ monocytes, Meso Scale assay
# Type: cell-based
# condition context: tested at 10 μM, LPS 100 ng/mL 18-24 h; read-out: % Inhibition compared to DMSO, TNFα
reported property: inhibition at 10 µM

                                   compound  meas_value
0  O=C1CCC(N2Cc3c(cc(F)cc3C3CCC3)C2=O)C(=O)N1 (stereo not drawn)   25 to 50%
1  O=C1CCC(N2Cc3c(cc(F)cc3C3CCCCC3)C2=O)C(=O)N1 (stereo not drawn)       < 10%
2  O=C1CCC(N2Cc3c(cc(Cl)cc3C3CCCC3)C2=O)C(=O)N1 (stereo not drawn)   10 to 25%
3  C[C@@H](c1cc(F)cc2c1CN(C1CCC(=O)NC1=O)C2=O)C(F)(F)F (stereo partly drawn)   25 to 50%
4  O=C1CCC(N2Cc3c(cccc3C3CCCC3)C2=O)C(=O)N1 (stereo not drawn)   10 to 25%
5  CC1(N2Cc3c(cc(F)cc3C3CCCC3)C2=O)CCC(=O)NC1=O (stereo not drawn)       > 50%
6  O=C1CCC(N2Cc3c(C4CCCC4)ccc(F)c3C2=O)C(=O)N1 (stereo not drawn)   25 to 50%
7  O=C1CCC(N2C(=O)c3cccc(C4CCCC4)c3C2=O)C(=O)N1 (stereo not drawn)       > 50%
8  O=C1CCC(N2Cc3c(cc(F)cc3C3=CCC(F)(F)CC3)C2=O)C(=O)N1 (stereo not drawn)   25 to 50%
